# EXPERIMENT SUMMARY: Solubility of free compound Ic-1 in different solvents
# Format: physicochemical
# CONDITION DESCRIPTION: organic solvent or mixture, thermodynamic from solid; Methyl isobutyl ketone, room temperature
# Procedure: The free base of the compound of formula Ic-1 was used as the starting material to obtain other salt forms. The free base of the compound of formula Ic-1 was an oily substance, and the solubility of the free base of the compound of formula Ic-1 in 11 common solvents was tested at room temperature. […] The rough solubility range calculated according to the mass of the solid sample, the volume of the added solvent and the observed dissolution phenomenon was shown in Table 8.
OBSERVED PROPERTY: solubility

Ask: State its solubility: CNCC[C@H](Oc1cccc2ccoc12)c1cccs1 [IC-1]
Result: > 42 mg/mL

====

# EXPERIMENT SUMMARY: Solubility of free compound Ic-1 in different solvents
# Type: physicochemical
# CONDITION DESCRIPTION: organic solvent or mixture, thermodynamic from solid; Acetonitrile, room temperature
# Protocol: The free base of the compound of formula Ic-1 was used as the starting material to obtain other salt forms. The free base of the compound of formula Ic-1 was an oily substance, and the solubility of the free base of the compound of formula Ic-1 in 11 common solvents was tested at room temperature. […] The rough solubility range calculated according to the mass of the solid sample, the volume of the added solvent and the observed dissolution phenomenon was shown in Table 8.
OBSERVED PROPERTY: solubility

Ask: For the molecule CNCC[C@H](Oc1cccc2ccoc12)c1cccs1 [IC-1] , give its measured solubility value.
Result: > 54 mg/mL

====

# EXPERIMENT SUMMARY: Solubility of free compound Ic-1 in different solvents
# Assay type: physicochemical
# CONDITION DESCRIPTION: organic solvent or mixture, thermodynamic from solid; Methanol, room temperature
OBSERVED PROPERTY: solubility

Ask: Recall and state the measured solubility for "CNCC[C@H](Oc1cccc2ccoc12)c1cccs1" .
Result: > 38 mg/mL

====

# EXPERIMENT SUMMARY: Solubility of free compound Ic-1 in different solvents
# Format: physicochemical
# CONDITION DESCRIPTION: organic solvent or mixture, thermodynamic from solid; n-Heptane, room temperature
OBSERVED PROPERTY: solubility

Ask: Find the measured solubility of CNCC[C@H](Oc1cccc2ccoc12)c1cccs1 [IC-1] and report it.
Result: 7.6 to 23 mg/mL

====

# SYSTEM UNDER TEST: UniProt:Q7Z2W7
# Sequence (Q7Z2W7 whole entry, species assumed): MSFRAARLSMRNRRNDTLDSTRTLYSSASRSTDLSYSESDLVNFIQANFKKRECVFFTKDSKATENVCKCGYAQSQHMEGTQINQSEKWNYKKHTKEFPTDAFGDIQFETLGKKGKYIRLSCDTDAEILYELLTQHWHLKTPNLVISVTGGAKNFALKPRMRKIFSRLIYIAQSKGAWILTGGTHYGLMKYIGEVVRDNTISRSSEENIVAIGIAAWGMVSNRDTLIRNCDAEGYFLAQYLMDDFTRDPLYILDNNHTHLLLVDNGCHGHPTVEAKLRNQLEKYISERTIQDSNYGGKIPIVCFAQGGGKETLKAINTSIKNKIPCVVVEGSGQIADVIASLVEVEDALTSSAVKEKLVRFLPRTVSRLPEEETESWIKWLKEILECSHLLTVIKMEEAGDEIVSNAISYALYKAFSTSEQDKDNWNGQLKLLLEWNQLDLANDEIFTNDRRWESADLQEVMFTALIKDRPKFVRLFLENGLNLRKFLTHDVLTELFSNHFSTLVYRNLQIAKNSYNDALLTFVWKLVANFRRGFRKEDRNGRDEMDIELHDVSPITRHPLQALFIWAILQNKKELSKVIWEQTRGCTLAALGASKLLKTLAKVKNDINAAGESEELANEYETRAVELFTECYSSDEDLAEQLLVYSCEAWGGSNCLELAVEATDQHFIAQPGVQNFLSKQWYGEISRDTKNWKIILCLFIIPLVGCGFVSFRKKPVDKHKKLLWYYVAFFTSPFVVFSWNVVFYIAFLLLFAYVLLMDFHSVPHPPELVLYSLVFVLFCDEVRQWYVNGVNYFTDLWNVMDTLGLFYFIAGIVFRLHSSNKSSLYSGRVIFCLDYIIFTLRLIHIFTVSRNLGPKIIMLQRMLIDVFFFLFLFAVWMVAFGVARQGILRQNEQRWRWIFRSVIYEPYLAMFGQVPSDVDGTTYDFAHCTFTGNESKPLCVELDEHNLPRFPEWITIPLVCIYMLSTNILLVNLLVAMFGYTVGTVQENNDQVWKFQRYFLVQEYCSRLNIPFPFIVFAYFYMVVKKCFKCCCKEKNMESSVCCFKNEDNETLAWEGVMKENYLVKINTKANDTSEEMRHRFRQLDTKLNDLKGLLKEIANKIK
# EXPERIMENT SUMMARY: Manual patch clamp detection on TRPM8 channel
# CONDITION DESCRIPTION: read-out: IC50 of the compound to TRPM8
pIC50: −log10 of the molar value.
OBSERVED PROPERTY: pIC50

Ask: Specify pIC50 for "CNCC[C@H](Oc1cccc2ccoc12)c1cccs1" and stop.
Result: < 5.00
